- testTarget: T1, TRCW5 antigen (CD3δε-Fc-Avi) (biotinylated (site not stated))
- T1 construct: also called recombinant CD3
- T1 sequence (chain, as listed by the source mutant limits assumed): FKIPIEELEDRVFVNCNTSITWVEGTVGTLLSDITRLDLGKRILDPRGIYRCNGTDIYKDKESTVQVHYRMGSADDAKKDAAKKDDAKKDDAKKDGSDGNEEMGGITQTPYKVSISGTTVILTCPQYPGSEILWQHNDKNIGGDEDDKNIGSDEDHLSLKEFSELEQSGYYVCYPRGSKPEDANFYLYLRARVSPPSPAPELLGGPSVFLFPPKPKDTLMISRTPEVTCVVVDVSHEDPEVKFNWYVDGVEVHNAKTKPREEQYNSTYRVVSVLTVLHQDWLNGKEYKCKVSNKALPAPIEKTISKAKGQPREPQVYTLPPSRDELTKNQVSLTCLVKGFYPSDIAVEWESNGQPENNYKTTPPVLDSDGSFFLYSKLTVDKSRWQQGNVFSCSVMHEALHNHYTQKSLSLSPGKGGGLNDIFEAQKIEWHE
- testDescription: ELISA after heat
reportedProperty: % Retained 65° C. (%)
A number alone suffices; assume %.

# query: % Retained 65° C. of entry CD3B2069 (scFv) scFv: QVQLVQSGAEVKKPGSSVKVSCKASGYTFTRSTMHWVRQAPGQGLEWMGYINPSSAYTNYNQKFQGRVTLTADKSTSTAYMELSSLRSEDTAVYYCASPQVHYDYNGFPYWGQGTLVTVSSGGSEGKSSGSGSESKSTGGSEIVLTQSPATLSASPGERVTLSCSASSSVSYMNWYQQKPGTAPRRWIYDSSKLASGVPARFSGSGSGRDYTLTISSLEPEDFAVYYCQQWSRNPPTFGGGTKVEIK
17

Shifting focus to the binder that follows.
Please report the recorded % Retained 65° C. for CD3B2082 (scFv) scFv: QVQLVQSGAEVKKPGSSVKVSCKASGYTFTRSTMHWVRQAPGQGLEWMGYINPSSAYTNYAQKFQGRVTLTADKSTSTAYMELSSLRSEDTAVYYCASPQVHYDYNGFPYWGQGTLVTVSSGGSEGKSSGSGSESKSTGGSEIVLTQSPATLSASPGERVTLSCSASSSVSYMNWYQQKPGTSPRRWIYDSSKLASGVPARFSGSGSGRDYTLTISSLEPEDFAVYYCQQWSRNPPTFGGGTKVEIK .
9

Values compiled from patent US20250145711A1.
